Data provenance: PubChem BioAssay AID1963965

# Tested on: 996289-038-R-J1-PDC spheroid viability;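 note: luminescence used as a proxy for viable cell amount; spheroids exposed to compounds for seven days before viability read; percent viability relative to DMSO vehicle control as 100%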
# procedureDetails: Anticancer human tumor 996289-038-R-J1-PDC patient-derived colon adenocarcinoma cell line growth inhibition [PI3K]
# testParameters: second compound 0.1 µM; first compound 0.1 µM; stronger effect = lower value; spheroids with HUVEC and MSC
Parameter viability, T/C: see the listing below.

{"molecule": "CNC(=O)c1ccc(N2C(=S)N(c3ccc(C#N)c(C(F)(F)F)c3)C(=O)C2(C)C)cc1F + CC(Nc1ccc2c(c1)OCCn1cc(N3C(=O)OCC3C(F)F)nc1-2)C(N)=O", "outputUnit": "%", "viability, T/C": 85.4}
{"molecule": "CNC(=O)c1ccc(N2C(=S)N(c3ccc(C#N)c(C(F)(F)F)c3)C(=O)C2(C)C)cc1F + CC(Nc1ncnc2nc[nH]c12)c1cc2cccc(Cl)c2c(=O)n1-c1ccccc1", "outputUnit": "%", "viability, T/C": 98.4}
{"molecule": "Cn1ncc(Cl)c1-c1cc(C(=O)NC(CN)Cc2cccc(F)c2)sc1Cl (stereo not drawn) + COc1c(OCCCN2CCOCC2)ccc2c3n(c(=NC(=O)c4cnc(N)nc4)nc12)CCN3", "outputUnit": "%", "viability, T/C": 59.4}
